Measured values drawn from patent US20240327334A1 for this set.

target: SARS-CoV-2 Papain-like (PLpro) protease (Severe acute respiratory syndrome coronavirus 2, UniProt P0DTD1); experiment: SARS-CoV-2 Papain-like (PLpro) protease biochemical enzyme inhibition assay (ubiquitin-fluorophore substrate, Ub-R110); conditions: Ub-R110 substrate; run in duplicate; read-out: PLpro IC50
Here the recorded IC50 is given for each entry.

{"columns": ["Given Smiles", "IC50"],
 "data": [
  ["Cc1n[nH]c(C)c1-c1cc(C2(NC(=O)c3ccccc3CNC(=O)C(=O)NCC#N)CC2)c2ccccc2c1", "< 0.1 µM"],
  ["C#CCNC(=O)C(=O)NCc1ccccc1C(=O)NC1(c2cc(OC)c3nn(C4CC4)cc3c2)CC1", "< 0.1 µM"],
  ["N#CCNC(=O)C(=O)NCc1ccccc1C(=O)NC1(c2cc(F)cc(Br)c2)CC1", "0.1 to 1 µM"],
  ["O=C(NCC#CBr)C(=O)NCc1ccccc1C(=O)NC1(c2ccc3ccccc3c2)CC1", "< 0.1 µM"],
  ["N#CN1CCC[C@H]1CC(=O)NCc1ccccc1C(=O)NC1(c2cc(Br)cc3ccccc23)CC1", "0.1 to 1 µM"],
  ["CC(C)(C)OC(=O)/C=C/CNC(=O)C(=O)NCc1ccccc1C(=O)NC1(c2cccc3ccccc23)CC1", "0.1 to 1 µM"],
  ["C[C@@H](NC(=O)c1cc(F)c(F)cc1CNC(=O)C(=O)NCC#N)c1cccc2ccccc12", "0.1 to 1 µM"]
]}

---

We begin with a simple list: items and their reported IC50.
target: SARS-CoV-2 Papain-like (PLpro) protease (Severe acute respiratory syndrome coronavirus 2, UniProt P0DTD1); assay: SARS-CoV-2 Papain-like (PLpro) protease biochemical enzyme inhibition assay (ubiquitin-fluorophore substrate, Ub-R110); conditions: Ub-R110 substrate; run in duplicate; read-out: PLpro IC50

{"columns": ["Compound", "IC50"],
 "data": [
  ["NC(=O)N1CC[C@@H]1CNC(=O)C(=O)NCc1ccccc1C(=O)NC1(c2cccc3ccccc23)CC1 [Example 499]", "1000 to 10000 nM"],
  ["O=C(NCC#Cc1nccs1)C(=O)NCc1ccccc1C(=O)NC1(c2ccnc3ccccc23)CC1 [Example 392]", "< 100 nM"],
  ["N#CCNC(=O)C(=O)NCc1ccccc1C(=O)NC1(c2cc(-c3cnn(C4CC4)c3)c3ccccc3c2)CC1 [Example 307]", "< 100 nM"],
  ["C[C@@H](NC(=O)c1c(F)cccc1CNC(=O)C(=O)NCC#N)c1cccc2ccccc12 [Example 29]", "< 100 nM"],
  ["O=C(NCC#Cc1nccs1)C(=O)NCc1ccccc1C(=O)NC1(c2cccc(-c3cnn(C4CC4)c3)c2Cl)CC1 [Example 385]", "< 100 nM"],
  ["N#CCNC(=O)C(=O)NCc1ccccc1C(=O)NC1(c2cc(-c3cnn(C4CC4)c3)nc3c2ccn3C2CC2)CC1 [Example 413]", "< 100 nM"],
  ["N#C[C@@H]1CCN1C(=O)C(=O)NCc1ccccc1C(=O)NC1(c2cccc3ccccc23)CC1 [Example 119]", "1000 to 10000 nM"]
]}

---

biological target: SARS-CoV-2 Papain-like (PLpro) protease (Severe acute respiratory syndrome coronavirus 2); assay: SARS-CoV-2 Papain-like (PLpro) protease biochemical enzyme inhibition assay (ubiquitin-fluorophore substrate, Ub-R110); conditions: Ub-R110 substrate; run in duplicate; read-out: PLpro IC50

{"columns": ["Given Smiles", "IC50"],
 "data": [
  ["O=C(NC/C=C/c1cnccn1)C(=O)NCc1ccccc1C(=O)NC1(c2ccc3ccccc3c2)CC1", "100 to 1000 nM"],
  ["N#CCNC(=O)C(=O)NCc1ccccc1C(=O)NC1(c2cc(C(=O)NC3CC3)cc3ccccc23)CC1", "< 100 nM"],
  ["N#Cc1ccc(C#CCNC(=O)C(=O)NCc2ccccc2C(=O)NC2(c3ccc4ccccc4c3)CC2)c(F)c1", "< 100 nM"],
  ["C#CC(=O)NNC(=O)C(=O)Nc1ccccc1C(=O)N[C@H](C)c1cccc2ccccc12", "1000 to 10000 nM"]
]}

---

target: SARS-CoV-2 Papain-like (PLpro) protease (Severe acute respiratory syndrome coronavirus 2); test: SARS-CoV-2 Papain-like (PLpro) protease biochemical enzyme inhibition assay (ubiquitin-fluorophore substrate, Ub-R110); conditions: Ub-R110 substrate; run in duplicate; read-out: PLpro IC50
Below, each entry is listed alongside its reported IC50.
Metric: IC50

{"columns": ["Given Smiles", "Experimental Result"],
 "data": [
  ["N#CCNC(=O)C(=O)NCc1ccc(OCCO)cc1C(=O)NC1(c2cccc3ccccc23)CC1", "< 100 nM"],
  ["N#Cc1ccccc1C#CCNC(=O)C(=O)NCc1ccccc1C(=O)NC1(c2ccc3ccccc3c2)CC1", "< 100 nM"],
  ["N#CCNC(=O)C(=O)NCc1ccccc1C(=O)NC1(c2cccc3ccccc23)COC1", "> 10000 nM"],
  ["CN1CCC(n2cc(-c3cc(F)cc(C4(NC(=O)c5ccccc5CNC(=O)C(=O)NCC#Cc5cnc(F)nc5)CC4)c3)cn2)CC1", "< 100 nM"]
]}

---

Entries and their measured pEC50 follow.
system: SARS-CoV-2 replicon; assay: microbe, parasite or virus in culture; assay type: cell-based; settings: Severe acute respiratory syndrome coronavirus 2, Huh-7
pEC50: −log10 of the molar value.
Metric: pEC50

{"columns": ["Molecule", "Experimental Result"],
 "data": [
  ["CN(C)CCn1cc(-c2cc(F)cc(C3(NC(=O)c4ccccc4CNC(=O)C(=O)NCC#Cc4nccs4)CC3)c2)cn1 [Example 251]", "> 6.00"],
  ["Cc1nn(C)cc1-c1cc(Cl)cc(C2(NC(=O)c3ccccc3CNC(=O)C(=O)NCC#Cc3nccs3)CC2)c1 [Example 486]", "> 6.00"],
  ["COC(=O)/C=C/CNC(=O)C(=O)NCc1ccccc1C(=O)N[C@H](C)c1cccc2ccccc12 [Example 2]", "> 6.00"],
  ["COc1cc(C2(NC(=O)c3ccccc3CNC(=O)C(=O)N[C@@H](C)C#Cc3ccc(S(C)(=O)=O)cc3F)CC2)cc2cn(C3CC3)nc12 [Example 149]", "> 6.00"],
  ["COc1cc(C2(NC(=O)c3ccccc3CNC(=O)C(=O)NCC#N)CC2)c2cccnc2c1 [Example 411]", "5.00 to 6.00"],
  ["Cn1cc2cc(C3(NC(=O)c4ccccc4CNC(=O)C(=O)NCC#Cc4ccccc4C#N)CC3)ccc2n1 [Example 104]", "> 6.00"],
  ["Cn1cc2cc(C3(NC(=O)c4ccccc4CNC(=O)C(=O)NCC4CN(C#N)C4)CC3)ccc2n1 [Example 432]", "5.00 to 6.00"]
]}

---

pEC50 by entry:
system: SARS-CoV-2 replicon; assay: microbe, parasite or virus in culture; assay type: cell-based; conditions: Severe acute respiratory syndrome coronavirus 2, Huh-7
pEC50: −log10 of the molar value.

{"columns": ["Given Smiles", "pEC50"],
 "data": [
  ["O=C(NC/C=C/C(=O)N1CC[C@@H](O)C1)C(=O)NCc1ccccc1C(=O)NC1(c2cccc3ccccc23)CC1", "< 5.00"],
  ["COC(=O)/C=C/CNC(=O)C(=O)NCc1cccc(F)c1C(=O)N[C@H](C)c1cccc2ccccc12", "> 6.00"],
  ["N#CN1CCC[C@H]1CNC(=O)C(=O)NCc1ccccc1C(=O)NC1(c2cccc3ccccc23)CC1", "> 6.00"],
  ["O=C(NC/C=C/C(=O)n1cccn1)C(=O)NCc1ccccc1C(=O)NC1(c2cccc3ccccc23)CC1", "5.00 to 6.00"],
  ["O=C(NCC#Cc1nccs1)C(=O)NCc1ccccc1C(=O)NC1(c2cc(F)cc(-c3cnn(C4COC4)c3)c2)CC1", "> 6.00"],
  ["N#CCNC(=O)C(=O)NCc1ccccc1C(=O)NC1(c2cc(N3CC(O)C3)cc3ccccc23)CC1", "5.00 to 6.00"],
  ["O=C(/C=C/CNC(=O)C(=O)NCc1ccccc1C(=O)NC1(c2cccc3ccccc23)CC1)Nc1ccccc1", "5.00 to 6.00"]
]}

---

biological target: SARS-CoV-2 Papain-like (PLpro) protease (Severe acute respiratory syndrome coronavirus 2); assay: SARS-CoV-2 Papain-like (PLpro) protease biochemical enzyme inhibition assay (ubiquitin-fluorophore substrate, Ub-R110); conditions: Ub-R110 substrate; run in duplicate; read-out: PLpro IC50

{"columns": ["Compound", "IC50"],
 "data": [
  ["C#CCNC(=O)C(=O)NCc1ccccc1C(=O)NC1(c2ccc(OC)c(Br)c2)CC1 [Example 230]", "< 100 nM"],
  ["CC(=O)N1CCN(c2cc(C3(NC(=O)c4ccccc4CNC(=O)C(=O)NCC#N)CC3)c3ccccc3c2)CC1 [Example 328]", "< 100 nM"],
  ["O=C(NCC#Cc1cccc(F)n1)C(=O)NCc1ccccc1C(=O)NC1(c2ccc3ccccc3c2)CC1 [Example 196]", "< 100 nM"],
  ["N#Cc1ccc(C#CCNC(=O)C(=O)NCc2ccccc2C(=O)NC2(c3ccc4ccccc4c3)CC2)cc1 [Example 171]", "< 100 nM"],
  ["CN(C)S(=O)(=O)n1cc(-c2cc(C3(NC(=O)c4ccccc4CNC(=O)C(=O)NCC#N)CC3)c3ccccc3c2)cn1 [Example 355]", "< 100 nM"],
  ["C[C@@H](NC(=O)c1ccccc1CNC(=O)C(=O)NCC#N)c1cccc2ccccc12 [Example 6]", "< 100 nM"],
  ["C[C@@H](C#Cc1ccc(C#N)cc1F)NC(=O)C(=O)NCc1ccccc1C(=O)NC1(c2cc(F)cc(-c3cnn(C4CC4)c3)c2)CC1 [Example 145]", "< 100 nM"],
  ["C#CCNC(=O)C(=O)NCc1ccccc1C(=O)NC1(c2cc(F)cc(-c3cnn(C4CC4)c3)c2F)CC1 [Example 311]", "< 100 nM"],
  ["Cc1n[nH]cc1-c1cc(C2(NC(=O)c3ccccc3CNC(=O)C(=O)NCC#N)CC2)c2ccccc2c1 [Example 284]", "< 100 nM"],
  ["CC(C)Oc1cccnc1C#C[C@H](C)NC(=O)C(=O)NCc1ccccc1C(=O)NC1(c2cc(F)cc(-c3cnn(C4CC4)c3)c2)CC1 [Example 268]", "100 to 1000 nM"],
  ["N#CCNC(=O)C(=O)NCc1ccccc1C(=O)NC1(c2cc(Cl)cc(-c3cncs3)c2)CC1 [Example 448]", "< 100 nM"],
  ["CN(C(=O)c1cc(Cl)cc(C2(NC(=O)c3ccccc3CNC(=O)C(=O)NCC#N)CC2)c1)c1ccc(F)cc1 [Example 78]", "100 to 1000 nM"],
  ["N#CN1CC(CNC(=O)C(=O)NCc2ccccc2C(=O)NC2(c3cc(F)cc(-c4cnn(C5CC5)c4)c3)CC2)C1 [Example 431]", "100 to 1000 nM"],
  ["CNN(C)C(=O)/C=C/CNC(=O)C(=O)NCc1ccccc1C(=O)NC1(c2cccc3ccccc23)CC1 [Example 559]", "100 to 1000 nM"],
  ["N#CCNC(=O)C(=O)NCc1ccccc1C(=O)NC1(c2cc(F)cc(C(F)(F)F)c2)CC1 [Example 375]", "1000 to 10000 nM"]
]}
